- TARGET DESC: UniProt:P14842
- Sequence (P14842 whole entry): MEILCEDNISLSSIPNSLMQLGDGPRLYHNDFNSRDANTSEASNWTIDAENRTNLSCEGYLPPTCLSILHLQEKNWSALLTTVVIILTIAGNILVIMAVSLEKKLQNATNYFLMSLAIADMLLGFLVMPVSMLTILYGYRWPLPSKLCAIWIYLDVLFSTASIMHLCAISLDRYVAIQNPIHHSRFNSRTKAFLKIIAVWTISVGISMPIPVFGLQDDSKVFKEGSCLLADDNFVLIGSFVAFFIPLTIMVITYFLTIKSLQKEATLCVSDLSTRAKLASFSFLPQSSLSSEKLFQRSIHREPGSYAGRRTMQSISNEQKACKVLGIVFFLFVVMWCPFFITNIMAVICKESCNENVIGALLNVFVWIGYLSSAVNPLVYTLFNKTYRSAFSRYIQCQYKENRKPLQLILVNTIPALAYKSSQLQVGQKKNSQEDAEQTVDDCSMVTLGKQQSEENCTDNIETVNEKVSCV
- PROTOCOL DESCRIPTION: 5-HT2 Functional Assay: [Ca2+]i Mobilization (FLIPR)
- CONDITION SET: [Ca2+]i mobilization, A7r5 rat vascular smooth muscle cells
- Protocol: 5-HT2 Functional Assay: [Ca^2+]i Mobilization The receptor-mediated mobilization on intracellular calcium ([Ca^2+]i) was studied using the Fluorescence Imaging Plate Reader (FLIPR) instrument. […] The compound plate and cell plate were placed in the FLIPR instrument. At the beginning of an experimental run, a signal test was performed to check the basal fluorescence signal from the dye-loaded cells and the uniformity of the signal across the plate. […]
OBSERVABLE: EC50 (nM)

> print(dat)
                         chem.smiles  value
1    C[C@H](N)Cn1ncc2ccc(C(N)=O)cc21    465
2  CCOC(=O)c1ccc2cnn(C[C@H](C)N)c2c1    837
